- assayNotes: Cytotoxicity to virus host cell (CC50)
- Assay type: cell-based, human
- conditionLabel: human, C-33A host cells; HPV-11 test (Table 1)
readoutLabel: CC50

compound: Nc1nc2c(ncn2CCOCP(=O)(O)O)c(=O)[nH]1 [9-[2-(phosphono-methoxy)-ethyl]guanine, reference compound]
readoutLabel: CC50
result: > 150 µM

* * *

- assayNotes: Cytotoxicity to virus host cell (CC50)
- Assay type: cell-based, human
- conditionLabel: human, C-33A host cells; HPV-31 test (Table 3)

compound: Nc1nc2c(ncn2CCOCP(=O)(O)O)c(=O)[nH]1 [9-[2-(phosphono-methoxy)-ethyl]guanine, reference compound]
CC50: > 250 µM
